- System Under Test: Rac-1 (Homo sapiens (Human))
- Method Description: Rac inhibition assay (labeled GTP)
- Assay type: binding
- Cond: read-out: Rac-1 % Inh.
Recorded inhibition at 20 µM values for a group of compounds are listed next.

>>> assay_value("Oc1nc(-c2ccccn2)nc2c(-c3cccc4c3OCO4)csc12 [drawing 3721]")
"51 to 75%"
>>> assay_value("COCCNc1nc(-c2ccccn2)nc(-c2cccc(OCCN(C)C)c2)c1Oc1ccccc1 [drawing 3847]")
"1 to 25%"
>>> assay_value("O=C(NCCc1cncnc1)c1csc2nc(-c3ccccn3)nc(N3CCOCC3)c12 [drawing 3673]")
"51 to 75%"
>>> assay_value("COc1cc(OC)cc(N2CCN(C(=O)c3csc4c(O)nc(-c5ccccn5)nc34)CC2)c1 [drawing 3646]")
"25 to 50%"

We now examine a further compound.
Case COCC(C)Nc1nc(-c2nccn2C)nc2sc(-c3ccccc3)c(-c3ccccc3)c12 (centres unmarked) [drawing 3895] , Rac-1 (Homo sapiens (Human)), inhibition at 20 µM recorded as 1 to 25%

Hey, just so you know, these numbers are from patent US10940139B2.
